Origin of the recorded values: ChEMBL document CHEMBL4425109

Molecular target: Vitamin K-dependent protein C (Homo sapiens)
Sequence (P04070 43-197 limits assumed): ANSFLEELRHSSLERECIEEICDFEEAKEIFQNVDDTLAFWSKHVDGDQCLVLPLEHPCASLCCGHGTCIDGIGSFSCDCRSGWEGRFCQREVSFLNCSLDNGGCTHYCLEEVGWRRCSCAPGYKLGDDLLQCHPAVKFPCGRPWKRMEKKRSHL
Sequence (P04070 212-461 limits assumed): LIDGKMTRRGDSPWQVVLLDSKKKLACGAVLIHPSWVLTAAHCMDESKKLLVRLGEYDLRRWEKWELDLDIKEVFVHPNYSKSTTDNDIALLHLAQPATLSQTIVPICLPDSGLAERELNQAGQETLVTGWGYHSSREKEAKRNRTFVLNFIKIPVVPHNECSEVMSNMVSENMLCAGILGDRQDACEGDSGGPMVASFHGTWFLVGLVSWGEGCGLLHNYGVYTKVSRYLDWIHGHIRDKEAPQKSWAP
Experiment: Inhibition of human activated Protein C using Mes-DArg-Pro-Arg-AMC as substrate by Dixon plot analysis
value.type: pKi
// scale note: pKi = -log10(conc_M); give the bare number

Consider the worked cases shown below.
smiles.notation	observed
N=C(N)c1ccc(CNC(=O)[C@@H]2Cc3ccc(cc3)NC(=O)CCN3CCN(CCC(=O)Nc4ccc(cc4)C[C@@H](N)C(=O)N2)CC3)cc1	3.97
NCc1ccc(CNC(=O)[C@@H]2Cc3ccc(cc3)NC(=O)CCN3CCN(CCC(=O)Nc4ccc(cc4)C[C@@H](NS(=O)(=O)Cc4ccccc4)C(=O)N2)CC3)cc1	4.49
N=C(N)c1ccc(CNC(=O)[C@@H]2Cc3ccc(cc3)NC(=O)CN3CCN(CC3)CC(=O)Nc3ccc(cc3)C[C@@H](NC(=O)Cc3ccccc3)C(=O)N2)cc1	3.67
N=C(N)c1ccc(CNC(=O)[C@@H]2Cc3ccc(cc3)NC(=O)CCN3CCN(CCC(=O)Nc4ccc(cc4)C[C@@H](NC=O)C(=O)N2)CC3)cc1	4.20
N=C(N)NCCCCNC(=O)[C@@H]1Cc2ccc(cc2)NC(=O)CCN2CCN(CCC(=O)Nc3ccc(cc3)C[C@@H](NS(=O)(=O)NC3CCCCC3)C(=O)N1)CC2	4.31
N=C(N)c1ccc(CNC(=O)[C@@H]2Cc3ccc(cc3)NC(=O)CN3CCN(CC3)CC(=O)Nc3ccc(cc3)C[C@@H](NC(=O)OCc3ccccc3)C(=O)N2)cc1	4.03

Query block: Return value of pKi for input `N=C(N)c1ccc(CNC(=O)[C@@H]2Cc3ccc(cc3)NC(=O)CN3CCN(CC3)CC(=O)Nc3ccc(cc3)C[C@@H](NC(=O)CCc3ccccc3)C(=O)N2)cc1` , no commentary.
Result block: 4.38

Query block: Return value of pKi for input `CCCCS(=O)(=O)N[C@@H]1Cc2ccc(cc2)NC(=O)CCN2CCN(CCC(=O)Nc3ccc(cc3)C[C@@H](C(=O)NCc3ccc(C(=N)N)cc3)NC1=O)CC2` , no commentary.
Result block: 5.37

Query block: Return value of pKi for input `N=C(N)c1ccc(CNC(=O)[C@@H]2Cc3ccc(cc3)NC(=O)CCN3CCN(CCC(=O)Nc4ccc(cc4)C[C@@H](NC(=O)OCc4ccccc4)C(=O)N2)CC3)cc1` , no commentary.
Result block: 4.33
